For each entry below, report its z-score value.
# experimental.details: growth of efflux-deficient E. coli DRC39 – strain DRC39, OD650, 48 h, E. coli filamentation inducers, primary screen (AID 1179);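 further: screen aims at cell division blockers that make cells filament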
# assay.conditions: E. coli DRC39 delta-acrAB growth, higher = more signal, called active from +8 up or from −8 down
Give bare numbers.

[
  {
    "compound": "COc1ccc(C#Cc2ccc3c(c2)[C@]2(C(=O)N3)[C@H](C(=O)O)[C@H]3C(=O)O[C@H](c4ccccc4)[C@H](c4ccccc4)N3[C@@H]2c2ccc(O)cc2)cc1",
    "assay.endpoint": "z-score",
    "experimental.result": -0.94
  },
  {
    "compound": "CCOC(=O)C[C@H]1[C@H](OC(=O)c2ccccc2-c2ccccc2)[C@@H](NC(=O)c2ccc3ccccc3c2)c2cc(OCCCO)ccc2N1C(=O)c1ccccc1",
    "assay.endpoint": "z-score",
    "experimental.result": 0.203
  },
  {
    "compound": "COC(=O)c1c(CC[C@@H](CO)NC(=O)N[C@@H](C)Cn2cc(-c3ccccn3)nn2)oc(C(C)=O)c1C(=O)OC",
    "assay.endpoint": "z-score",
    "experimental.result": -0.605
  },
  {
    "compound": "OCCCC1=CC(c2ccc(CN3CCCC3)cc2)N(Cc2cc3c(cc2Br)OCO3)CC1 (configuration not stated)",
    "assay.endpoint": "z-score",
    "experimental.result": 0.149
  },
  {
    "compound": "CC[C@@H]1O[Si](C(C)C)(C(C)C)c2c1cc(-c1cc(C)c(OC)c(C)c1)nc2-c1ccc(Oc2ccccc2)cc1",
    "assay.endpoint": "z-score",
    "experimental.result": 0.424
  }
]

Each compound below has a reported value. Please supply its z-score.
1. COC(=O)[C@@]1(Cc2ccc(OC)cc2)[C@H]2c3cc(C(=O)N(C)C)n(Cc4ccc(OC(F)(F)F)cc4)c3C[C@H]2CN1C(=O)c1ccccc1
2. C[N+](C)(C)CCCC[C@@H]1NC(=O)[C@@H]2C[C@H](C(=O)NCCCCCCN)[C@H](c3cccc(OCCO)c3)N2C1=O

Resp:
1. -0.804
2. 0.743

---

For each entry below, report its composite z-score value.
# experimental.details: probe aLefty2 binding to arrayed compounds – biochemical, biotinylated probe, 635/667 nm fluorescence, primary screen (AID 1094);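 further: score merges spot fluorescence near 667 nm with spot signal-to-noise ratio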
# assay.conditions: small-molecule microarray, higher = more signal
One number for each entry.

[
  {
    "compound": "C#CCN(Cc1ccccc1Br)[C@H](/C=C/c1ccccc1)[C@@H](O)Cc1ccccc1",
    "experimental.result": 0.195
  },
  {
    "compound": "COC(=O)[C@@]1(Cc2ccc(F)cc2)[C@H]2c3cc(C(=O)N4CCCC4)n(CCc4c[nH]c5ccccc45)c3C[C@H]2CN1C(=O)c1ccccc1",
    "experimental.result": 0.323
  },
  {
    "compound": "CCCCCCCCCC(O)C1C=CC2C(=O)N(c3ccccc3)C(=O)C2N1Nc1cc(OC)c(OC)c(OC)c1 (centres undefined)",
    "experimental.result": -0.163
  },
  {
    "compound": "COc1ccc([Si](C)(C)[C@@H]2[C@@H](CCO)O[C@]3(C(=O)N(Cc4ccccc4)c4ccc(N5C(=O)c6cccc7cccc5c67)cc43)[C@H]2C)cc1",
    "experimental.result": -0.186
  },
  {
    "compound": "COC(=O)c1c(CC[C@@H](CO)NC(=O)N2CCC[C@H]2Cn2cc(C3(O)CCCCC3)nn2)oc(C(C)=O)c1C(=O)OC",
    "experimental.result": -0.124
  }
]

Each compound below has a reported value. Please supply its composite z-score.
1. NC(=O)NCC#Cc1ccc2c(c1)[C@]1(C(=O)N2)[C@H](c2ccccc2OCCO)N2[C@H](c3ccccc3)[C@H](c3ccccc3)OC(=O)[C@H]2[C@@H]1C(=O)O
2. CCCC=C(CCC)[C@@H](NC(=O)C(C)(C)C)c1ccc(C(=O)OC)cc1
3. O[C@@H](Cc1ccccc1)[C@@H](/C=C/C1CC1)N(CC#Cc1ccccc1)Cc1ccccc1Br
4. COC(=O)[C@@]1(Cc2ccc(OC)cc2)[C@H]2c3cc(C(=O)N4CCCC4)n(CCc4c[nH]c5ccc(OC)cc45)c3C[C@H]2CN1C(=O)c1ccccc1
5. COc1ccc(C#Cc2ccc3c(c2)[C@]2(C(=O)N3)[C@H](C(=O)O)[C@H]3C(=O)O[C@H](c4ccccc4)[C@H](c4ccccc4)N3[C@@H]2c2ccc(O)cc2)cc1

Resp:
1: -0.0201; 2: 0.498; 3: 0.0166; 4: 0.722; 5: -0.0042
